# Test system: A673/TR/shEF
# Assay notes: cell viability (LOESS-normalised, relative to median of negative controls) (log2 ratio); higher = more viable cells (less compound effect), active = hit call of the paper (over 3 MAD below the median)
# Measurement parameters: 2.5 µM; library screen: screen1; EWS-FLI1 expression: high (no doxycycline); treatment time: 72 h
About 300 (9.4%) of roughly 3,200 compounds showed activity. The sample as a whole holds a higher share of actives than the screen did.
Provide the recorded cell viability (log2) for the entries that follow.
Give bare numbers.

Some entries whose results are on file:
[
  {
    "Molecule": "O=C1c2ccccc2-c2n[nH]c3cccc1c23",
    "cell viability (log2)": -0.0168
  },
  {
    "Molecule": "N/C(=N\\S(=O)(=O)Cc1ccccc1)Nc1nc2ccccc2o1",
    "cell viability (log2)": 0.149
  },
  {
    "Molecule": "NS(=O)(=O)c1ccc(-c2ccc(/C=C3/SC(=S)N(C4CCCCC4)C3=O)o2)cc1",
    "cell viability (log2)": 0.167
  },
  {
    "Molecule": "CN1CCN(CC(=O)N2c3ccccc3Sc3ccccc32)CC1",
    "cell viability (log2)": 0.173
  },
  {
    "Molecule": "CC(=O)O[C@H]1CC[C@]2(C)C3=CC(=O)[C@@]4(C)C(C[C@@H]5OC6(OCC(C)CC6Br)[C@@H](C)[C@@H]54)C3CC[C@H]2C1 (some centres undefined)",
    "cell viability (log2)": 0.172
  }
]

Here are 7 molecules. What values of cell viability (log2) were reported for them?
1. CC(=O)OCC(OC(C)=O)C(OC(C)=O)C(OC(C)=O)C(OC(C)=O)C(COC(C)=O)OC(C)=O (centres undefined)
2. CC1(C)S[C@@H]2[C@H](NC(=O)[C@H](N)c3ccccc3)C(=O)N2[C@H]1C(=O)O
3. C[C@@H]1CC[C@@]23CCC4(C)[C@@](C=CC5[C@@]6(C)CC[C@H](O)C(C)(C)C6CC[C@]54C)(OC2=O)C3[C@H]1C (some centres undefined)
4. O=C(NC(=S)Nc1ncc(Br)cc1Br)c1cccs1
5. Nc1ncn([C@@H]2O[C@H](CO)[C@@H](O)[C@H]2O)c(=O)n1
6. NC(=O)c1ncn([C@@H]2O[C@H](CO)[C@@H](O)[C@H]2O)n1
7. COc1ccc2c(c1)[C@@]1(C)CCC(=O)C[C@H]1CC2

[0.176, 0.142, 0.0828, 0.132, 0.046, 0.0898, 0.105]

Could you report cell viability (log2) for every entry in the following list?
1. NC[C@H](O)c1ccc(O)c(O)c1
2. N=c1ccn2c(n1)O[C@H]1[C@H](O)[C@@H](CO)O[C@H]12
3. CNC[C@H](O)c1ccc(O)c(O)c1
4. C[n+]1c2cc(N)ccc2cc2ccc(N)cc21
5. CC1(C)S[C@@H]2[C@H](NC(=O)C(C(=O)O)c3ccccc3)C(=O)N2[C@H]1C(=O)O (some centres undefined)
6. Nc1ccc(S(=O)(=O)Nc2ccnn2-c2ccccc2)cc1
7. O=C1O[C@H]([C@@H](O)CO)C([O-])=C1[O-].[Ca+2]

1. 0.127
2. -1.03
3. 0.183
4. 0.0728
5. 0.243
6. 0.14
7. 0.131

List reported cell viability (log2) for each of these molecules:
1. C=C1c2cccc(O)c2C(O)=C2C(=O)[C@]3(O)C(O)=C(C(N)=O)C(=O)[C@@H](N(C)C)[C@@H]3[C@@H](O)[C@H]12
2. C=C1CCC(C2CC(=O)OC2=O)C(=O)CCC2C1CC2(C)C (centres undefined)
3. CCOC(=O)c1c[nH]c2c(C)cccc2c1=O
4. COc1ccc(OC)c(CN2CCN(Cc3cccnc3)CC2)c1
5. CC1(C)C(=O)CCC2(C)C1CC(O)C1(C)C2CCC2(C)C(c3ccoc3)OC(=O)C3OC321 (centres undefined)

1: -0.0967; 2: 0.0855; 3: 0.1; 4: 0.0976; 5: 0.1

Hey, can you go through the list below and give me cell viability (log2) for every item?
1. Nc1ncnc2c1ncn2[C@H]1C[C@H](O)[C@@H](CO)O1
2. C[C@H]1c2cccc(O)c2C(O)=C2C(=O)[C@]3(O)C(O)=C(C(N)=O)C(=O)[C@@H](N(C)C)[C@@H]3[C@@H](O)[C@@H]21

0.0495
0.0598
